The measurements presented in this section are drawn from patent US20260138990A1.

Each entry below lists one item and its recorded pIC50 value.
tested.on: human CD38 (Homo sapiens)
assay.notes: NAD+ cyclase activity assay with human recombinant CD38 protein (ε-NAD fluorescence)
condition.description: 1.9 nM human CD38, substrate ε-NAD, 30 min preincubation, fluorescence 300/410 nm
pIC50: −log10 of the molar value.

Below are worked cases with known answers.
CN(C)c1nc2ccc(C(=O)N[C@@H]3CCCOC3)cc2n2cncc12 [Compound 35A]; < 6.00
COCCOc1ncc(NC(=O)c2ccc3c(c2)-c2cncn2CCO3)cn1 [Compound 81A]; > 7.52
CNC(=O)[C@H]1CC[C@H](NC(=O)c2ccc3c(c2)-c2cncn2CCO3)CC1 [Compound 17A]; > 7.52
CNc1nc2ccc(C(=O)N[C@@H]3CCCOC3)cc2n2cncc12 [Compound 28A]; > 7.52

INPUT: Bench note: what pIC50 did O=C(N[C@H]1CC[C@H](O[C@H]2C[C@@H](F)C2)CC1)c1ccc2c(c1)-c1cncn1CCO2 [Compound 147A] show?
OUTPUT: > 7.52

INPUT: Record: C[C@@H]1CCCC[C@@H]1NC(=O)c1cc(F)c2c(c1)-c1cncn1CCO2 (relative stereo) [Compound 175A]
OUTPUT: > 7.52

INPUT: Record: CC(C)(CO[C@H]1CC[C@H](NC(=O)c2ccc3c(c2)-c2cncn2CCO3)CC1)C(F)(F)F [Compound 120A]
OUTPUT: > 7.52

INPUT: Record: COCC1COc2cc(NC(=O)c3ccc4c(c3)-c3cncn3CCO4)cnc2O1 (centres unmarked) [Compound 144A]
OUTPUT: > 7.52

====

tested.on: human CD38 (Homo sapiens, UniProt P28907)
Sequence (P28907 whole entry): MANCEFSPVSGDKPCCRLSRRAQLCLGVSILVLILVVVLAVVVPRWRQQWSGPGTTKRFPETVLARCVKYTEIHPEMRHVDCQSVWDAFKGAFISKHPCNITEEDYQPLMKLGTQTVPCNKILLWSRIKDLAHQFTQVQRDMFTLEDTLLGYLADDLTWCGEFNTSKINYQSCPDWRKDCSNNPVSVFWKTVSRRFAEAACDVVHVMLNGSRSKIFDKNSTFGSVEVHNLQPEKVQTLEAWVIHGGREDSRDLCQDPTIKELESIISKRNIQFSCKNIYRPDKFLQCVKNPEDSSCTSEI
assay.notes: NAD+ cyclase activity assay with human recombinant CD38 protein (ε-NAD fluorescence)
condition.description: 1.9 nM human CD38, substrate ε-NAD, 30 min preincubation, fluorescence 300/410 nm
pIC50: −log10 of the molar value.
measured.metric: pIC50

Below are worked cases with known answers.
O=C(N[C@H]1CC[C@@H](NCCC(F)(F)F)CC1)c1ccc2c(c1)-c1cncn1CCO2 [Compound 111A]; 6.00 to 7.00
O=C(N[C@H]1CC[C@H](OCC(F)(F)F)CC1)c1cc(Cl)c2c(c1)-c1cncn1CCO2 [Compound 157A]; > 7.52
O=C(N[C@H]1CC[C@H](NCCC(F)(F)F)CC1)c1ccc2c(c1)-c1cncn1CCO2 [Compound 110A]; 7.00 to 7.52

INPUT: Bench note: what pIC50 did C[C@@H]1CCC[C@H](C)[C@@H]1NC(=O)c1cc(F)c2c(c1)-c1cncn1CCO2 [Compound 178A] show?
OUTPUT: > 7.52

INPUT: Record: COCCO[C@H]1CC[C@H](NC(=O)c2ccc3c(c2)-c2cncn2CCO3)CC1
OUTPUT: > 7.52

INPUT: Record: CC1(C)CC(NC(=O)c2cc(F)c3c(c2)-c2cncn2CCO3)C1 [Compound 143A]
OUTPUT: > 7.52

INPUT: Record: O=C(N[C@H]1CC[C@H](NCC(F)(F)F)CC1)c1ccc2c(c1)-c1cncn1CCO2 [Compound 62A]
OUTPUT: > 7.52

INPUT: Record: O=C(N[C@H]1CC[C@H](C(F)(F)F)CC1)c1ccc2c(c1)-c1cncn1CCO2 [Compound 52A]
OUTPUT: > 7.52
